# SYSTEM_NAME: EGFR (Homo sapiens (Human), UniProt P00533)
# ASSAY_OVERVIEW: ErbB Enzyme Assay (HTRF KinEASE-TK), Assay 3
# Format: biochemical
# RUN_PARAMETERS: EGFR enzyme assay
MEASUREMENT_TYPE: IC50 (µM)
Form entry: value (µM) — number only.

Worked examples follow.
C=CC(=O)N1CCN(c2ccc3ncnc(Nc4cc(C)c(Oc5ccn6ncnc6c5)cc4F)c3n2)C[C@@H]1CC [Example 290]; 8.71
C=CC(=O)N1CCN(c2ccc3ncnc(Nc4ccc(Oc5cnc6c(c5)ncn6C)c(C)c4)c3n2)CC1(C)C [Example 250]; 4.12
C=CC(=O)N1C2CCC1CN(c1ccc3ncnc(Nc4cc(Cl)c(Oc5ccn6ncnc6c5)cc4F)c3n1)C2 [Example 434]; 1.23
C=CC(=O)N1CCN(c2ccc3ncnc(Nc4ccc(Oc5ccn6ncnc6c5)c(Cl)c4F)c3n2)C[C@@H]1C1CC1 [Example 287]; 1.1

Here is the next item to consider.
Looking up C=CC(=O)N1C[C@H]2C[C@@H]1[C@H](c1ccc3ncnc(Nc4ccc(Oc5cnc6c(c5)ncn6C)c(C)c4)c3n1)C2 [Example 407] , I see its IC50 listed as 1.51

----------
# SYSTEM_NAME: BCRP (Homo sapiens (Human), UniProt Q9UNQ0)
# Sequence (Q9UNQ0 whole entry): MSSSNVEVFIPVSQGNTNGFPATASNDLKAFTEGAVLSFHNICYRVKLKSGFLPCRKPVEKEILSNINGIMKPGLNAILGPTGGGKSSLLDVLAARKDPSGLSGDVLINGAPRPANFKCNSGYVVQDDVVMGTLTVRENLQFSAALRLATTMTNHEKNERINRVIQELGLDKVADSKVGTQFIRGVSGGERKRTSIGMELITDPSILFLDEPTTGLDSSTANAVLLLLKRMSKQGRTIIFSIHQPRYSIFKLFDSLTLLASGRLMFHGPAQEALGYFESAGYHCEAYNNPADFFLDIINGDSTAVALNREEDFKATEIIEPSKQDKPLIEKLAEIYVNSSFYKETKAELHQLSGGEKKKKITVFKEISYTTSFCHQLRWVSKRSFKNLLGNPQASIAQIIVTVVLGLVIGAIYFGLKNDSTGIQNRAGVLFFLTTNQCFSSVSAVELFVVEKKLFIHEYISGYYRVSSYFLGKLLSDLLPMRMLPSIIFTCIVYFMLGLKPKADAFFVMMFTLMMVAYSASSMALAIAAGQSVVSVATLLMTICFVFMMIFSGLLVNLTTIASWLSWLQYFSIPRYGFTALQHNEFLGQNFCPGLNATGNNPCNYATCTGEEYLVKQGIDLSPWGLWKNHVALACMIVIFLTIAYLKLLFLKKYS
# ASSAY_OVERVIEW: BCRP MDCKII efflux assay (Assay 7)
# Format: in vitro ADME
# RUN_PARAMETERS: dog; efflux ratio Papp(B-A)/Papp(A-B), BCRP MDCKII cells; read-out: Assay 7 Pe Ratio
MEASUREMENT_TYPE: efflux ratio at 2 h, 1 µM
Lab note: jot the number down without any unit.

C=CC(=O)N1CCCN(c2ccc3ncnc(Nc4ccc(Oc5ccc6c(c5)ncn6C)c(C)c4)c3n2)CC1; 30.1

Looking up `C=CC(=O)N1CC2CCC(C1)N2c1ccc2ncnc(Nc3ccc(Oc4ccn5ncnc5c4)c(C)c3F)c2n1` , I see its efflux ratio at 2 h, 1 µM listed as 9.6

Looking up C=CC(=O)N1CCCC(c2ccc3ncnc(Nc4cc(C)c(Oc5ccn6ncnc6c5)cc4F)c3n2)CC1 (stereo not shown) , I see its efflux ratio at 2 h, 1 µM listed as 2.7

Looking up `C=CC(=O)N1C[C@H](c2ccc3ncnc(Nc4ccc(Oc5ccc6c(c5)ncn6C)c(C)c4F)c3n2)CC[C@H]1C` , I see its efflux ratio at 2 h, 1 µM listed as 2.1

Looking up `C=CC(=O)N1CC2CC(C1)N2c1ccc2ncnc(Nc3cc(Cl)c(Oc4ccn5ncnc5c4)cc3F)c2n1` , I see its efflux ratio at 2 h, 1 µM listed as 5.6

Looking up `C=CC(=O)N1CCCN(c2ccc3ncnc(Nc4ccc(Oc5cnc6c(c5)ncn6C)c(Cl)c4)c3n2)CC1` , I see its efflux ratio at 2 h, 1 µM listed as 37.5

Looking up `C=CC(=O)N1C[C@@H]2C[C@H]1CN2c1ccc2ncnc(Nc3ccc(Oc4ccc5c(c4)ncn5C)c(C)c3F)c2n1` , I see its efflux ratio at 2 h, 1 µM listed as 3.8

----------
# SYSTEM_NAME: ErbB2 with Exon 20 YVMA insertion (HER2-YVMA) (Homo sapiens (Human), UniProt P04626, INS775YVMA)
# Sequence (P04626 other isoform, or with tags, fused parts or gaps ins YVMA behind 775): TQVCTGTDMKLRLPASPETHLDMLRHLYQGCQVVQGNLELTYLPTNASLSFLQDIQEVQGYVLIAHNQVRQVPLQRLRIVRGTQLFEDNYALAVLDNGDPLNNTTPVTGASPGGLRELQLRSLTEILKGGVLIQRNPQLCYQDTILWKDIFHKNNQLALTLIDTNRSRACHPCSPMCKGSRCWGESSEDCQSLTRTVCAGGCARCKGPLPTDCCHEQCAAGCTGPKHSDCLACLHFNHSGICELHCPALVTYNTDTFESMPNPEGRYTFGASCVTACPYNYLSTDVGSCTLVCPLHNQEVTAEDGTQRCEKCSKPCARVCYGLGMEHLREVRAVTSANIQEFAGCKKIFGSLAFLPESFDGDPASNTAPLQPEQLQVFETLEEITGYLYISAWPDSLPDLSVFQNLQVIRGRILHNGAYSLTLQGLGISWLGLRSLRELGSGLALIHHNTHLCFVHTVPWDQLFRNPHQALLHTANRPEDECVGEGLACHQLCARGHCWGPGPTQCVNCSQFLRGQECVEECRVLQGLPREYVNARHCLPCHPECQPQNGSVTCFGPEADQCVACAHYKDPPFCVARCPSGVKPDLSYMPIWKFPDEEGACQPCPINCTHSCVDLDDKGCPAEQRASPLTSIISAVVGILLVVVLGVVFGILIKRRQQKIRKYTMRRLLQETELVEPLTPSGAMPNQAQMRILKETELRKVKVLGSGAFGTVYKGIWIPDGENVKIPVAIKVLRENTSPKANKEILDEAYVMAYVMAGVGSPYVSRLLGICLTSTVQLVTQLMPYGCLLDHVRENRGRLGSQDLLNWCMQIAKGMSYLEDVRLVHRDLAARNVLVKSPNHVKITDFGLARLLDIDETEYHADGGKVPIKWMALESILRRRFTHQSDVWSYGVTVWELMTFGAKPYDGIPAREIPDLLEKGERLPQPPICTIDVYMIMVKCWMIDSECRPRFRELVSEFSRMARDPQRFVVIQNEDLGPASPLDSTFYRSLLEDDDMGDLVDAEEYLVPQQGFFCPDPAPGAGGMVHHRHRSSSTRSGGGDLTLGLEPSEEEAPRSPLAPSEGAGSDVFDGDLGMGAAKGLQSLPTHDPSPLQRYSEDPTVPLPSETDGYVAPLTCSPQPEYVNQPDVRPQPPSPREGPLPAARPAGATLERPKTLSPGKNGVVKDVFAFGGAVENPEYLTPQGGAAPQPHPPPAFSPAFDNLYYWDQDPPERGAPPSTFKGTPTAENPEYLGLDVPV
# ASSAY_OVERVIEW: Cellular Phosphorylation Assay, Assay 4 (constitutive ErbB2 phosphorylation, NIH 3T3 cells)
# Type: cell-based
# RUN_PARAMETERS: ErbB2 YVMA phosphorylation
As shown below, each of these compounds has a reported IC50 value.
Form entry: value (nM) — number only.

C=CC(=O)N1CC[C@H]2C[C@@H]1CN2c1ccc2ncnc(Nc3ccc(Oc4cnc5c(c4)ncn5C)c(C)c3F)c2n1; 256
C=CC(=O)N1C[C@H]2C[C@@H]1CN2c1ccc2ncnc(Nc3cc(C)c(Oc4ccn5ncnc5c4)cc3F)c2n1; 145
C=CC(=O)N1[C@@H]2CC[C@H]1C[C@@H](c1ccc3ncnc(Nc4ccc(Oc5cnc6c(c5)ncn6C)c(C)c4F)c3n1)C2; 26.8
C=CC(=O)N1CCN(c2ccc3ncnc(Nc4ccc(Oc5ccc6scnc6c5)c(C)c4F)c3n2)CC1(C)C; 50.2
C=CC(=O)N1C[C@H]2C[C@H](c3ccc4ncnc(Nc5cc(C)c(Oc6ccn7ncnc7c6)cc5F)c4n3)C[C@H]2C1; 213
C=CC(=O)N1C[C@H](c2ccc3ncnc(Nc4cc(C)c(Oc5ccc6c(c5)ncn6C)cc4F)c3n2)C[C@H]1C; 22.1

Here is the next item to consider.
Looking up C=CC(=O)N1CCC2CN(c3ccc4ncnc(Nc5ccc(Oc6ccn7ncnc7c6)c(Cl)c5)c4n3)CC21 (stereo not shown) , I see its IC50 listed as 21.6

----------
# SYSTEM_NAME: EGFR wild type (EGFR WT) (Homo sapiens (Human), UniProt P00533)
# Sequence (P00533 25-1210): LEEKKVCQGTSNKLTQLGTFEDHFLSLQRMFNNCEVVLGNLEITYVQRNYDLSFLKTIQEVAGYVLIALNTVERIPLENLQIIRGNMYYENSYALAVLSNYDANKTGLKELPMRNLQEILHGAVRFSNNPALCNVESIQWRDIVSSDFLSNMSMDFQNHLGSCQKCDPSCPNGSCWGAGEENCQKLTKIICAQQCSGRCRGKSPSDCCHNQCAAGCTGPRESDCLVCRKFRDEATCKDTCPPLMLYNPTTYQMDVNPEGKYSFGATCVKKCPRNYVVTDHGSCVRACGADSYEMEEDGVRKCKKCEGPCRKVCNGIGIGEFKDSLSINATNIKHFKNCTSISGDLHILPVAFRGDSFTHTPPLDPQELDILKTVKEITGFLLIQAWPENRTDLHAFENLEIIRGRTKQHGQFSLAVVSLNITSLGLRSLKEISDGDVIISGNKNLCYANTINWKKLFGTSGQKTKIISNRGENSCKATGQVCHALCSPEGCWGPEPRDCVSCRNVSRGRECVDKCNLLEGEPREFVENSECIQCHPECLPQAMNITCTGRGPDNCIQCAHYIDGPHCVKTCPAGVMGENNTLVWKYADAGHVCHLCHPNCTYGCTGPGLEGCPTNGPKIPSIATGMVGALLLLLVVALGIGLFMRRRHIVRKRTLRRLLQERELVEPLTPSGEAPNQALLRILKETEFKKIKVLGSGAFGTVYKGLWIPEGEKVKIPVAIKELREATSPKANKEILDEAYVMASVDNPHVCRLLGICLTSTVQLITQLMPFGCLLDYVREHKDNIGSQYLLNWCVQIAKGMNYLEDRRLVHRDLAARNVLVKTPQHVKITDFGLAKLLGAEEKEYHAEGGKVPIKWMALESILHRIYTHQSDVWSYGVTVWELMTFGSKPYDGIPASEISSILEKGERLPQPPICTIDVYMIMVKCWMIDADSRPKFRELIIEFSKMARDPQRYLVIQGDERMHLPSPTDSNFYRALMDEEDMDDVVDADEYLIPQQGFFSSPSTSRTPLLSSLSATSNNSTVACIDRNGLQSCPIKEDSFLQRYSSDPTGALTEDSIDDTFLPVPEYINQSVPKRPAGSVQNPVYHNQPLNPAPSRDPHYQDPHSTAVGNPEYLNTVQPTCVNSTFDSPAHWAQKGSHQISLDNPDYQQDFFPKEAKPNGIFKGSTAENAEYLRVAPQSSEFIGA
# ASSAY_OVERVIEW: Cellular Phosphorylation Assay, Assay 5 (EGF-stimulated EGFR phosphorylation, NIH 3T3 cells)
# Format: cell-based
# RUN_PARAMETERS: cellular EGFR WT phosphorylation, EGF-stimulated
Strictly below 800 nM in IC50: 1. Otherwise: 0.

C=CC(=O)N1[C@H](C)CN(c2ccc3ncnc(Nc4cc(C)c(Oc5ccn6ncnc6c5)cc4F)c3n2)C[C@@H]1C; 0
C=CC(=O)N1CCC12CN(c1ccc3ncnc(Nc4cc(C)c(Oc5ccn6ncnc6c5)cc4F)c3n1)C2; 1
C=CC(=O)N1CCCC(c2ccc3ncnc(Nc4cc(C)c(Oc5ccn6ncnc6c5)cc4F)c3n2)C1 (centres unmarked); 0

Q) Lab note: IC50 threshold 800 nM. Does this compound come in strictly under it? `C=CC(=O)N1C[C@@H]2C[C@H](c3ccc4ncnc(Nc5cc(C)c(Oc6ccn7ncnc7c6)cc5F)c4n3)C[C@H]1C2`
A) 0

Q) Lab note: IC50 threshold 800 nM. Does this compound come in strictly under it? `C=CC(=O)N1CCN(c2ccc3ncnc(Nc4ccc(Oc5cnc6c(c5)ncn6C)c(C)c4F)c3n2)CC12CC2`
A) 0

Q) Lab note: IC50 threshold 800 nM. Does this compound come in strictly under it? `C=CC(=O)N1[C@@H]2CCC[C@H]1[C@@H](c1ccc3ncnc(Nc4ccc(Oc5ccn6ncnc6c5)c(C)c4F)c3n1)C2`
A) 0

Q) Lab note: IC50 threshold 800 nM. Does this compound come in strictly under it? `C=CC(=O)N1[C@@H](C)CN(c2ccc3ncnc(Nc4ccc(Oc5ccc6c(c5)ncn6C)c(C)c4F)c3n2)C[C@@H]1C`
A) 0

Q) Lab note: IC50 threshold 800 nM. Does this compound come in strictly under it? `C=CC(=O)N1[C@@H](C)CN(c2ccc3ncnc(Nc4cc(C)c(Oc5ccc6c(c5)ncn6C)cc4F)c3n2)C[C@@H]1C`
A) 0

Q) Lab note: IC50 threshold 800 nM. Does this compound come in strictly under it? `C=CC(=O)N1CCN(c2ccc3ncnc(Nc4ccc(Oc5ccn6ncnc6c5)c(C)c4F)c3n2)C[C@H]1COC`
A) 1

Q) Lab note: IC50 threshold 800 nM. Does this compound come in strictly under it? `C=CC(=O)N1[C@@H]2CC[C@H]1[C@H](c1ccc3ncnc(Nc4cc(C)c(Oc5ccc6c(c5)ncn6C)cc4F)c3n1)C2`
A) 0

Q) Lab note: IC50 threshold 800 nM. Does this compound come in strictly under it? C=CC(=O)N1C[C@@H](c2ccc3ncnc(Nc4cc(C)c(Oc5ccn6ncnc6c5)cc4F)c3n2)C[C@@H]1C (mixture of isomers)
A) 0

Q) Lab note: IC50 threshold 800 nM. Does this compound come in strictly under it? C=CC(=O)N1C[C@@H]2CC(c3ccc4ncnc(Nc5ccc(Oc6ccn7ncnc7c6)c(C)c5F)c4n3)C[C@H]1C2 (some centres unmarked)
A) 0

----------
# SYSTEM_NAME: ErbB2 with Exon 20 YVMA insertion (HER2-YVMA) (Homo sapiens (Human), UniProt P04626, INS775YVMA)
# ASSAY_OVERVIEW: Cellular Phosphorylation Assay, Assay 4 (constitutive ErbB2 phosphorylation, NIH 3T3 cells)
# Type: cell-based
# RUN_PARAMETERS: ErbB2 YVMA phosphorylation
MEASUREMENT_TYPE: log10 of IC50 (log10 of the value in nM)
Answers are given as log10 of IC50 in nM.

CC#CC(=O)N1CCN(c2ccc3ncnc(Nc4ccc(Oc5ccn6ncnc6c5)c(Cl)c4F)c3n2)C[C@@H]1C(F)(F)F; 0.64
C=CC(=O)N1C[C@H](c2ccc3ncnc(Nc4ccc(Oc5ccc6c(c5)ncn6C)c(C)c4F)c3n2)C[C@H]1C; 1.20
C=CC(=O)N1CC(c2ccc3ncnc(Nc4cc(C)c(Oc5ccc6c(c5)ncn6C)cc4F)c3n2)CCC12CC2 (stereo not shown); 1.53
CC#CC(=O)N1CCN(c2ccc3ncnc(Nc4ccc(Oc5ccn6ncnc6c5)c(Cl)c4F)c3n2)C[C@H]1C; 1.44

Looking up `C=CC(=O)N1CCN(c2nc3c(Nc4ccc(Oc5ccn6ncnc6c5)c(C)c4F)ncnc3cc2Cl)CC1(C)C` , I see its log10 of IC50 listed as 2.22

Looking up `C=CC(=O)N1CCN(c2ccc3ncnc(Nc4ccc(Oc5ccn6ncnc6c5)c(Cl)c4F)c3n2)C[C@@H]1C(F)(F)F` , I see its log10 of IC50 listed as 0.76

Looking up `C=CC(=O)N1C[C@H]2CC[C@@H](C1)[C@@H]2c1ccc2ncnc(Nc3cc(C)c(Oc4ccn5ncnc5c4)cc3F)c2n1` , I see its log10 of IC50 listed as 2.49
